These entries and their values trace back to ChEMBL document CHEMBL1201862.

# Test system: HCT-116
# Assay remarks: NCI tumour cell line growth inhibition, 48 h
Active and inactive are the calls of the source. Rule as the data show it: active = GI50 up to about 1.1 µM and inactive = higher.
Outcome measure: GI50

For this compound ( `COP(=O)(OC)/C(=C/c1c[nH]c2ccccc12)C(=O)O` ), measured GI50 is > 100 µM (inactive)

Record summary for COC(=O)[C@]1(c2cc3ccccc3n2S(=O)(=O)c2ccccc2)CC2CCC1NC2 (some centres undefined) : reported GI50 = 13.7 µM (inactive)

Record `O=C(NC(=S)Nc1ccc2c(c1)Sc1ccccc1O2)c1ccc([N+](=O)[O-])cc1` . Reported GI50: > 100 µM (inactive)

Kindly note the recorded GI50 for CC1(C)OC2C(O)C(CO)OC2(C(F)F)O1 (centres undefined) , which is > 100 µM (inactive)

Briefly, GI50 measured for `Nc1nc(Cl)cc(NCC2(CO)COC2)n1` : > 100 µM (inactive)

# GI50 (compound: `CCNC1=C(NC(=O)c2ccc(OC)cc2)C(=O)c2ccccc2C1=O` ) is 36.3 µM (inactive)

For reference, reported GI50 for `Cc1ccc(S(=O)(=O)NCCSCCNS(=O)(=O)c2ccc(C)cc2)cc1` stands at > 100 µM (inactive)

// recorded GI50 for `OC1CSCCSCCCSCCSC1` : > 100 µM (inactive)

Lab note: measured GI50 of COc1cc(C2NCCC(c3ccccc3)(c3ccccc3)N2)cc(OC)c1OC (centres undefined) was 4.43 µM (inactive)
